- Tested on: MV4-11
- protocol_details: Antiproliferative activity against human MV4-11 cells assessed as cell growth inhibition after 4 days by CCK8 assay
- Assay type: functional, cell-based
- experimental_context: MV4-11, 96 h
Rule: measured IC50 below 500 nM gets met; anything equal to or greater than 500 nM gets not met.

Ask | Criterion: IC50 strictly below 500 nM. Is it met by Cc1nnc2n1-c1ccc(NS(C)(=O)=O)cc1C(Nc1ccc(Cl)cc1)CC2 (centres undefined) ?
Reply | not met

Ask | Criterion: IC50 strictly below 500 nM. Is it met by Cc1nnc2n1-c1ccc(-c3cnn(C)c3)cc1C(Nc1ccc(Cl)cc1)CC2 (centres undefined) ?
Reply | met

Ask | Criterion: IC50 strictly below 500 nM. Is it met by "Cc1nnc2n1-c1ccc(-c3cnn(C)c3)cc1[C@H](Nc1ccc(Cl)cc1)CC2" ?
Reply | met

Ask | Criterion: IC50 strictly below 500 nM. Is it met by COc1ccc2c(c1)C(Nc1ccc(Cl)cc1)CCc1nnc(C)n1-2 (centres undefined) ?
Reply | not met

Ask | Criterion: IC50 strictly below 500 nM. Is it met by Cc1nnc2n1-c1ccc(-c3ccc(N(C)C)cc3)cc1C(Nc1ccc(Cl)cc1)CC2 (centres undefined) ?
Reply | not met

Ask | Criterion: IC50 strictly below 500 nM. Is it met by Cc1nnc2n1-c1ccc(NC(=O)C3CCN(C)CC3)cc1C(Nc1ccc(Cl)cc1)CC2 (centres undefined) ?
Reply | not met

Ask | Criterion: IC50 strictly below 500 nM. Is it met by Cc1nnc2n1-c1ccc(C3=CCNCC3)cc1C(Nc1ccc(Cl)cc1)CC2 (centres undefined) ?
Reply | not met

Ask | Criterion: IC50 strictly below 500 nM. Is it met by CCn1cc(-c2ccc3c(c2)C(Nc2ccc(Cl)cc2)CCc2nnc(C)n2-3)cn1 (centres undefined) ?
Reply | met

Ask | Criterion: IC50 strictly below 500 nM. Is it met by Cc1nnc2n1-c1ccc(Br)cc1C(Nc1ccc(Cl)cc1)CC2 (racemic) ?
Reply | not met

Ask | Criterion: IC50 strictly below 500 nM. Is it met by Cc1nnc2n1-c1ccc(C3=CCN(C)CC3)cc1C(Nc1ccc(Cl)cc1)CC2 (centres undefined) ?
Reply | not met

Ask | Criterion: IC50 strictly below 500 nM. Is it met by Cc1sc2c(c1C)C(c1ccc(Cl)cc1)=N[C@@H](CC(=O)Nc1ccc(O)cc1)c1nnc(C)n1-2 [BIRABRESIB] ?
Reply | met

Ask | Criterion: IC50 strictly below 500 nM. Is it met by Cc1nnc2n1-c1ccc(-c3ccc(CCN4CCN(C)CC4)cc3)cc1C(Nc1ccc(Cl)cc1)CC2 (centres undefined) ?
Reply | met

Ask | Criterion: IC50 strictly below 500 nM. Is it met by "Cc1nnc2n1-c1ccc(-c3cnn(C)c3)cc1[C@@H](Nc1ccc(Cl)cc1)CC2" ?
Reply | not met

Ask | Criterion: IC50 strictly below 500 nM. Is it met by Cc1nnc2n1-c1ccc(-c3ccc(C(=O)O)cc3)cc1C(Nc1ccc(Cl)cc1)CC2 (centres undefined) ?
Reply | not met

Ask | Criterion: IC50 strictly below 500 nM. Is it met by CC(=O)Nc1ccc2c(c1)C(Nc1ccc(Cl)cc1)CCc1nnc(C)n1-2 (centres undefined) ?
Reply | not met

Ask | Criterion: IC50 strictly below 500 nM. Is it met by Cc1nnc2n1-c1ccc(-c3ccc(CN4CCN(C)CC4)cc3)cc1C(Nc1ccc(Cl)cc1)CC2 (centres undefined) ?
Reply | met

Ask | Criterion: IC50 strictly below 500 nM. Is it met by Cc1nnc2n1-c1ccc(-c3cnn(C)c3)cc1C(Nc1cccc3ccccc13)CC2 (centres undefined) ?
Reply | met

Ask | Criterion: IC50 strictly below 500 nM. Is it met by Cc1nnc2n1-c1ccc(-c3cnn(C)c3)cc1C(Nc1ccc3ccccc3c1)CC2 (centres undefined) ?
Reply | met
